Entry source: ChEMBL document CHEMBL3232949

Biological target: Keap1/Nrf2 (Homo sapiens, UniProt Q14145)
Sequence (Q16236 whole entry): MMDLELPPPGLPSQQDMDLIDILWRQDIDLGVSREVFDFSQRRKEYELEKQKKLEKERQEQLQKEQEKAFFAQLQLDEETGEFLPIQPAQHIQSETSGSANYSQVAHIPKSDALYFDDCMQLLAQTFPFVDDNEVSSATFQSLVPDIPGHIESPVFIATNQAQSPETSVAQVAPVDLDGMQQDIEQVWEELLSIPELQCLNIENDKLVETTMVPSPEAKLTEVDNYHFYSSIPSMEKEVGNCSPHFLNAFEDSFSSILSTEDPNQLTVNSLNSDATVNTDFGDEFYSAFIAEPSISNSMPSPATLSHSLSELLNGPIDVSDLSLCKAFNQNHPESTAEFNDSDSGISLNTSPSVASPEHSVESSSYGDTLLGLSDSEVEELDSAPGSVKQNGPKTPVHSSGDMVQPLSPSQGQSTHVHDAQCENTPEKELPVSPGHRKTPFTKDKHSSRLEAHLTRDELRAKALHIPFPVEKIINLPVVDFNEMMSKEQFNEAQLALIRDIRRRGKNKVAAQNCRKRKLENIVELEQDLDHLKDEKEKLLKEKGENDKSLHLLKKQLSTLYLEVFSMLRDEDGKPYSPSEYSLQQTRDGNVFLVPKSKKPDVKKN
Sequence (Q14145 whole entry): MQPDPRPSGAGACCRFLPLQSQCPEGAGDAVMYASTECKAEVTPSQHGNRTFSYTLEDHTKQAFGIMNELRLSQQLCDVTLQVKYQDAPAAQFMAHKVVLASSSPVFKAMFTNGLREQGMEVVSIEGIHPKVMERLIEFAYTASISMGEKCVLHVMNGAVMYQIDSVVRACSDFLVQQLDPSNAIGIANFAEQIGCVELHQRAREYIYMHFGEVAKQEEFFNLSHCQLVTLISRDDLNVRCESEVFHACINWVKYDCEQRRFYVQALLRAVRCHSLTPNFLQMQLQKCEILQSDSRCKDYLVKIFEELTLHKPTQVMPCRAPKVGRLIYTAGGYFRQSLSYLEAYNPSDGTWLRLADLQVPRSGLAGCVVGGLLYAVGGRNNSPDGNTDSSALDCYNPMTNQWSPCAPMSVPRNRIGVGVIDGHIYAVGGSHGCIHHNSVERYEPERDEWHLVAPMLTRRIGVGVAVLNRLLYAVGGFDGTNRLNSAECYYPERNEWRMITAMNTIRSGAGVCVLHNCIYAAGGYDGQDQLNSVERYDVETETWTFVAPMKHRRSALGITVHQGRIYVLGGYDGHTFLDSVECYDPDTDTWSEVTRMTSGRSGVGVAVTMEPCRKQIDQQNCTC
Test: Inhibition of Keap1-Nrf2 (unknown origin) interaction assessed as compound's equilibrium dissociation constant after 60 mins by fluorescence anisotropy assay
# maps each entry to its log10 Kd
Kindly note that the scale is log10 and the underlying Kd is in µM.

Examples from the recorded data:
In [3]: df
Out[3]:
                               smiles_input                       experimental_target  measure_name  quantitative_result
0  Cc1cccc(NC(=O)CN2C(=O)S/C(=C\c3cccn3-c3cccc(C(=O)O)c3)C2=O)c1  Keap1/Nrf2 (Homo sapiens, UniProt Q14145)      log10 Kd                 1.83
1  O=C1NN(c2cccc(Cl)c2)C(=O)/C1=C\c1ccc(-c2cccc(C(=O)O)c2)o1  Keap1/Nrf2 (Homo sapiens, UniProt Q14145)      log10 Kd                 1.69
2  Cc1oc2c(cc(NS(=O)(=O)c3ccc(Cl)cc3)c3ccccc32)c1C(=O)O  Keap1/Nrf2 (Homo sapiens, UniProt Q14145)      log10 Kd                 1.88
3  Cc1ccc(/N=C2/S/C(=C\c3c(C)n(CC(=O)O)c4ccccc34)C(=O)N2C)cc1  Keap1/Nrf2 (Homo sapiens, UniProt Q14145)      log10 Kd                 1.55
4  Cc1ccc(NC(=O)CN2C(=O)S/C(=C\c3cccn3-c3cccc(C(=O)O)c3)C2=O)cc1C  Keap1/Nrf2 (Homo sapiens, UniProt Q14145)      log10 Kd                 1.46

Report log10 Kd for Cc1cc(C)c(S(=O)(=O)Nc2cc(Sc3nc[nH]n3)c(O)c3ccccc23)cc1C please.
0.56
